System: SNU-398
RUN DESCRIPTION: Growth inhibition of human SNU398 cells
Format: functional

{"MOLECULE": "COc1cc(-c2c(C#N)c(=O)oc3cc(N(C)C)ccc23)cc(Br)c1OC", "STUDY SYSTEM": "SNU-398", "GI50, nM": 150}
{"MOLECULE": "COc1cc(-c2c(C#N)c(=O)oc3c2ccc2c3ccn2C)cc(Br)c1OC", "STUDY SYSTEM": "SNU-398", "GI50, nM": 0.3}
{"MOLECULE": "COc1cc(-c2c(C#N)c(=O)oc3cc(N)ccc23)cc(Br)c1OC", "STUDY SYSTEM": "SNU-398", "GI50, nM": 440}
{"MOLECULE": "COc1cc(-c2c(C#N)c(=O)oc3c2ccc2c3ccn2C)cc2c1OCO2", "STUDY SYSTEM": "SNU-398", "GI50, nM": 7.9}

Values were extracted from ChEMBL document CHEMBL1144245.
